B1: APBB1IP (parent)
chain: PPEPLSQVSMWDQRWQDHQPLLPI

# Variants of: B1
# experimental_details: protein stability index of a GFP-peptide fusion (GPS, HEK-293T) (PSI 1-6); higher = more stable;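 also: lentivirally expressed fusions sorted by FACS into six bins by GFP to DsRed ratio, PSI derived from sequencing read proportions per bin multiplied by bin number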
# stated_conditions: c terminus: a fixed tail appended
Below: a set of entries, each annotated with reported protein stability index.
quantity: protein stability index

1) E3D ... 3.34
2) M10R ... 3.37
3) V8I ... 3.25
4) Q7M ... 2.74
5) E3R ... 3.18
6) R14L ... 3.01
7) W11P ... 3.08
8) M10G ... 3.3
9) Q7F ... 2.95
10) P1I ... 2.39
11) D17Q ... 2.57

These data points were gathered from the supplement of paper PMC10567573.
